Here the recorded pIC50 is given for each entry.
- system name: T1, cynomolgus IL-17A (cynomolgus, UniProt Q16552 24-155 (human entry), limits assumed)
- T1 construct: also called cyno IL-17A; cynoIL-17A
- T1 chain: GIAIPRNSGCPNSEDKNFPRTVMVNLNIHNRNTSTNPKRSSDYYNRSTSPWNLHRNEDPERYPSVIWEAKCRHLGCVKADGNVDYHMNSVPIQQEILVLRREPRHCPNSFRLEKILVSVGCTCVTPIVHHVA
- measurement description: competition ELISA: mAb against biotinylated cyno IL-17A binding to coated IL-17RA-Fc
Hey, just a heads up that pIC50 is the negative log base 10 of the concentration in molar.

# get_value(readout='pIC50', item= MORmAb7775 (antibody, V domains shown) VH: QVQLQQSGPGLVKPSQTLSLTCAISGDSVSSSSAAWGWIRQSPGRGLEWLGRISYRSKWYNDYAVSVKSRITINPDTSKNQFSLQLNSVTPEDTAVYYCAREVDSMYYSYFDIWGQGTLVTVSS VL: DIVLTQSPATLSLSPGERATLSCRASQNVWAFYLAWYQQKPGQAPRLLIYGASNRATGVPARFSGSGSGTDFTLTISSLEPEDFATYYCTQYYSSPSLTFGQGTKVEIK )
9.27

# get_value(readout='pIC50', item= MORmAb8095 (antibody, V domains shown) VH: QVQLVESGGGLVQPGGSLRLSCAASGFTFSSYAMSWVRQAPGKGLEWVSTISITSGFTYYADSVKGRFTISRDNSKNTLYLQMNSLRAEDTAVYYCARQLMLDVWGQGTLVTVSS VL: DIELTQPPSVSVAPGQTARISCSGDNLGDKYANWYQQKPGQAPVLVIYDDIDRPSGIPERFSGSNSGNTATLTISGTQAEDEADYYCGSYDFFLGMIVFGGGTKLTVL )
9.70

# get_value(readout='pIC50', item= MORmAb8096 (antibody, V domains shown) VH: QVQLVESGGGLVQPGGSLRLSCAASGFTFSSYAMSWVRQAPGKGLEWVSTISLTSGFTYYADSVKGRFTISRDNSKNTLYLQMNSLRAEDTAVYYCARQLMLDVWGQGTLVTVSS VL: DIELTQPPSVSVAPGQTARISCSGDNLGDKYANWYQQKPGQAPVLVIYDDIDRPSGIPERFSGSNSGNTATLTISGTQAEDEADYYCGSYDFFLGMIVFGGGTKLTVL )
10.24

# get_value(readout='pIC50', item= MORmAb7706 (antibody, V domains shown) VH: QVQLQQSGPGLVKPSQTLSLTCAISGDSVSSSSAAWGWIRQSPGRGLEWLGRISYRSKWYNDYAVSVKSRITINPDTSKNQFSLQLNSVTPEDTAVYYCAREVDSMYYSYFDIWGQGTLVTVSS VL: DIVLTQSPATLSLSPGERATLSCRASQNVWAFYLAWYQQKPGQAPRLLIYGASNRATGVPARFSGSGSGTDFTLTISSLEPEDFATYYCQQYRSTLSLTFGQGTKVEIK )
9.02

# get_value(readout='pIC50', item= MORmAb8142 (antibody, V domains shown) VH: QVQLVESGGGLVQPGGSLRLSCAASGFTFSSYAMSWVRQAPGKGLEWVSTISMTSGFTYYADSVKGRFTISRDNSKNTLYLQMNSLRAEDTAVYYCARQLMLDVWGQGTLVTVSS VL: DIELTQPPSVSVAPGQTARISCSGDNLGDKYANWYQQKPGQAPVLVIYDDIDRPSGIPERFSGSNSGNTATLTISGTQAEDEADYYCGSYDFFLGTIVFGGGTKLTVL )
9.86

# get_value(readout='pIC50', item= MORmAb8143 (antibody, V domains shown) VH: QVQLVESGGGLVQPGGSLRLSCAASGFTFSSYAMSWVRQAPGKGLEWVSTISMTSGFTYYADSVKGRFTISRDNSKNTLYLQMNSLRAEDTAVYYCARQLMLDVWGQGTLVTVSS VL: DIELTQPPSVSVAPGQTARISCSGDNLGDKYANWYQQKPGQAPVLVIYDDIDRPSGIPERFSGSNSGNTATLTISGTQAEDEADYYCGSYDFFLGYIVFGGGTKLTVL )
9.60
